Taken from ChEMBL document CHEMBL4837255.

assay: Cmax in rat at 300 mg/kg/day measured after 1 day; type: ADME, organism-based; set-up: dose 300 mg/kg/day, time 1 day; conditions: in vivo
Quantity measured: Cmax (ng/mL)
Reply numerically in ng/mL, unit not repeated.

Query block: Dear colleague, I am looking for the recorded Cmax of the following molecule: Cc1ccc(-c2c(C)nc(-c3cccc(F)c3O)n(CCc3ccccc3)c2=O)s1
Result block: 330
